In this section we review reported koff values for a set of binders.
Molecular target: T1, recombinant human ASM protein (human, UniProt P17405 47-630)
T1 construct: Recombinant human ASM in solution; also called acid sphingomyelinase (ASM) protein
T1 sequence: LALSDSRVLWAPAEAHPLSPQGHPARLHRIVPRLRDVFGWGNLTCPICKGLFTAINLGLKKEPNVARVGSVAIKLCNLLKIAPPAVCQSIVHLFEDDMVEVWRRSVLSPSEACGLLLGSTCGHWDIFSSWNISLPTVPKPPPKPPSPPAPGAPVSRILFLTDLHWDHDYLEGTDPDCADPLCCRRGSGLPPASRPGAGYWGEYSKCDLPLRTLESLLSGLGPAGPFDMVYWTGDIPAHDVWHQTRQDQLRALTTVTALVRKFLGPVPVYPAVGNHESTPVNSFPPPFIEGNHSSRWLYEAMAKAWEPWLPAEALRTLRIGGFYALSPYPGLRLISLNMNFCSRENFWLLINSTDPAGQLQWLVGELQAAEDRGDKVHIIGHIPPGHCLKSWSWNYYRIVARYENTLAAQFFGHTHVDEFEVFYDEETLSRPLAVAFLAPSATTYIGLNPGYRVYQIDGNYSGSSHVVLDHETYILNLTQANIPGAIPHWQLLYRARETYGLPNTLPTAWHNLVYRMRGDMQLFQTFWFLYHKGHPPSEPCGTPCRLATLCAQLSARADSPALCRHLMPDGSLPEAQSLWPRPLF
Experiment: BLI (Octet), antibody on AHC sensor
Respond numerically; units are s⁻¹ and should not be typed.

#9104v-L33 (antibody, human IgG4 S228P, lambda, V domains shown, Full-length IgG, lambda) VH: EVQLLESGGGLVQPGGSLRLSCAASGFTFSNYYMSWVRQAPGKGLEWVSGIYYGSGNIYYADSVKGRFTISRDNSKNTLYLQMNSLRAEDTAVYYCARDTPGFDYWGQGTLVTVSS VL: QSVLTQPPSASGTPGQRVTISCTGSSSNIGNNAVNWYQQLPGTAPKLLIYYDSYPPYGVPDRFSGSKSGTSASLAISGLRSEDEADYYCGAWDYSLSAYVFGGGTKLTVLG
0.000289

Provide one value: measured koff of #9104v-L47 (antibody, human IgG4 S228P, lambda, V domains shown, Full-length IgG, lambda) VH: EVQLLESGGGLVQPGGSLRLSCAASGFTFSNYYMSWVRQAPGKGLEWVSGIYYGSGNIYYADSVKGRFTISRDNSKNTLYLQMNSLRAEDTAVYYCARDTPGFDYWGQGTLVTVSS VL: QSVLTQPPSASGTPGQRVTISCTGSSSNIGNNAVNWYQQLPGTAPKLLIYYDSYTPSGVPDRFSGSKSGTSASLAISGLRSEDEADYYCGAWDYSLSAYVFGGGTKLTVLG
0.000415

Provide one value: measured koff of #9104v-L20 (antibody, human IgG4 S228P, lambda, V domains shown, Full-length IgG, lambda) VH: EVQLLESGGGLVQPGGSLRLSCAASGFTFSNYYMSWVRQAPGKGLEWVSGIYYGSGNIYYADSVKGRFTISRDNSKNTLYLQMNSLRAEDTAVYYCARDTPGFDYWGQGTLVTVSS VL: QSVLTQPPSASGTPGQRVTISCTGSSSNIGNNAVNWYQQLPGTAPKLLIYYDMFRPGGVPDRFSGSKSGTSASLAISGLRSEDEADYYCGAWDYSLSAYVFGGGTKLTVLG
0.000162
